# Test summary: in vitro
# Experimental parameters: human, uninfected MT-4 cells, CC50 (nM), same protocol as Test A, CellTiter-Glo
Recorded CC50 at 5 days for the following compounds
Readout name: CC50 at 5 days (nM)

Compound	Reading unit	Limit sign	Experimental value
O=C(Cc1c[nH]c2ccc(O)cc12)N[C@@H](Cc1cc(F)cc(F)c1)c1ncccc1Br [Example 38D]	nM	=	42600
NCc1ccc2c(CC(=O)N[C@@H](Cc3cc(F)cc(F)c3)c3ncccc3-c3cccc(C(N)=O)c3)c[nH]c2c1	nM	=	7250
NC(=O)c1cccc(-c2cncnc2[C@H](Cc2cc(F)cc(F)c2)NC(=O)Cc2c[nH]c3ccc(O)cc23)c1	nM	>	53200
NC(=O)c1cc(-c2cccnc2[C@H](Cc2cc(F)cc(F)c2)NC(=O)Cc2n[nH]c3ccccc23)ccc1F	nM	>	53200
NC(=O)c1cc(-c2cccnc2[C@H](Cc2cc(F)cc(F)c2)NC(=O)Cn2nc(C(=O)O)c3c2COC3)ccc1F	nM	>	53200
O=C(Cn1nc(C(F)F)c2c1C(F)(F)C1CC21)N[C@@H](Cc1cc(F)cc(F)c1)c1ncccc1-c1ccc(OC(F)F)cc1 (stereo partly shown)	nM	=	43200
CN(C)Cc1cn(CC(=O)N[C@@H](Cc2cc(F)cc(F)c2)c2ncccc2-c2ccc(F)c(C(N)=O)c2)nc1C(F)(F)F	nM	>	53200
